# System: Escherichia coli
# Experimental details: Antibacterial activity tested against Escherichia coli ISF 432
# Type: functional
Quantity: MIC (µg/mL)

Q: Give a short answer stating reported MIC for Cc1c(N2CCNC(C)C2)c(N)cc2c(=O)c(C(=O)O)cn(C3CC3)c12 (stereo not given) .
Result: 0.03

Q: Give a short answer stating reported MIC for `Cc1c(N2CCC(C)CC2)c(N(C)C)cc2c(=O)c(C(=O)O)cn(C3CC3)c12` .
Result: 64

Q: Give a short answer stating reported MIC for `Nc1cc2c(=O)c(C(=O)O)cn(C3CC3)c2cc1N1CCc2ccccc2C1` .
Result: 32

Q: Give a short answer stating reported MIC for `Cc1c(N2CCN(C)CC2)c([N+](=O)[O-])cc2c(=O)c(C(=O)O)cn(C3CC3)c12` .
Result: 4

Q: Give a short answer stating reported MIC for Cc1c(N2CCC3CCCCC3C2)c(N)cc2c(=O)c(C(=O)O)cn(C3CC3)c12 (stereo not given) .
Result: 4

a: Cc1c(N2CC(C)CC(C)C2)c(N)cc2c(=O)c(C(=O)O)cn(C3CC3)c12 (stereo not given)
b: Cc1c(N2CC=CCC2)c(N)cc2c(=O)c(C(=O)O)cn(C3CC3)c12
Q: Quick one: lower MIC, a or b ? # reply format: chosen label
Result: a

A: CC1CN(c2cc3c(cc2N)c(=O)c(C(=O)O)cn3C2CC2)CCN1 (stereo not given)
B: Cc1c(N2CCC(C)CC2)c([N+](=O)[O-])cc2c(=O)c(C(=O)O)cn(C3CC3)c12
C: Cc1c(N2CCCC(CO)C2)c(N)cc2c(=O)c(C(=O)O)cn(C3CC3)c12 (stereo not given)
D: Cc1c(N2CCC2)c(N)cc2c(=O)c(C(=O)O)cn(C3CC3)c12
Q: Sort (4 molecules) by MIC: min first. Hello, could you send the labels back in the order asked? Thank you.
Result: C, A, D, B
(C: 0.016 µg/mL, A: 0.03 µg/mL, D: 0.25 µg/mL, B: 2 µg/mL)

###

# Test system: Klebsiella pneumoniae
# Experimental details: Antibacterial activity tested against Klebsiella pneumoniae (Klebsiella pneumoniae) ATCC 10031
# Assay type: functional
Quantity: MIC (mg/L)

The following compounds have reported results that may help.
Q: Give a short answer stating reported MIC for `Cc1c(N2CCCCCC2)c(N)cc2c(=O)c(C(=O)O)cn(C3CC3)c12` .
Result: 0.03

Q: Give a short answer stating reported MIC for Cc1c(N2CC(C)NC(C)C2)c(N)cc2c(=O)c(C(=O)O)cn(C3CC3)c12 (stereo not given) .
Result: 0.03

Q: Give a short answer stating reported MIC for `Cc1c(N2CCN(C)CC2)c(F)cc2c(=O)c(C(=O)O)cn(C3CC3)c12` .
Result: 0.03

A: Cc1c(N2CCCCC2)c([N+](=O)[O-])cc2c(=O)c(C(=O)O)cn(C3CC3)c12
B: CC1CN(c2cc3c(cc2N)c(=O)c(C(=O)O)cn3C2CC2)CCN1 (stereo not given)
Q: Given A and B , report the one with the higher recorded MIC. # reply format: chosen label
Result: A
(A: 64 mg/L, B: 0.03 mg/L)

A: Cc1c(N2CCN(C)CC2)c([N+](=O)[O-])cc2c(=O)c(C(=O)O)cn(C3CC3)c12
B: Cc1c(N2CCc3ccccc3C2)c([N+](=O)[O-])cc2c(=O)c(C(=O)O)cn(C3CC3)c12
Q: Quick one: lower MIC, A or B ? # reply format: chosen label
Result: A
(A: 16 mg/L, B: 64 mg/L)

A: CN1CCN(c2nc3c(cc2N)c(=O)c(C(=O)O)cn3C2CC2)CC1
B: Nc1cc2c(=O)c(C(=O)O)cn(C3CC3)c2cc1N1CCNCC1
Q: Given A and B , report the one with the higher recorded MIC. # reply format: chosen label
Result: B

P: CN1CCN(c2cc3c(cc2N)c(=O)c(C(=O)O)cn3-c2ccc(F)cc2)CC1
Q: Cc1c(N2CCCC(C)C2)c(N)cc2c(=O)c(C(=O)O)cn(C3CC3)c12 (stereo not given)
R: Cc1c(N2CCN(C)CC2)c(N)cc2c(=O)c(C(=O)O)cn(-c3ccc(O)cc3)c12
S: Cc1c(N2CCC(C)CC2)c([N+](=O)[O-])cc2c(=O)c(C(=O)O)cn(C3CC3)c12
Q: Rank by MIC (largest to smallest). Hello, could you send the labels back in the order asked? Thank you.
Result: S, R, P, Q
(S: 64 mg/L, R: 0.25 mg/L, P: 0.125 mg/L, Q: 0.03 mg/L)

###

# System: Escherichia coli
# Experimental details: Antibacterial activity tested against Escherichia coli ISF 432
# Format: functional
Quantity: MIC (µg/mL)

Q: Please indicate recorded MIC of `CN1CCN(c2cc3c(cc2N)c(=O)c(C(=O)O)cn3-c2ccc(F)cc2)CC1` measured with Escherichia coli.
Result: 0.125

Q: Please indicate recorded MIC of `CN1CCN(c2c(N)cc3c(=O)c(C(=O)O)cn(C4CC4)c3c2F)CC1` measured with Escherichia coli.
Result: 0.06

Q: Please indicate recorded MIC of CC1CN(c2cc3c(cc2N)c(=O)c(C(=O)O)cn3C2CC2)CC(C)(C)N1 (stereo not given) measured with Escherichia coli.
Result: 0.03

Q: Please indicate recorded MIC of `Cc1c(N2CCC(O)CC2)c(N)cc2c(=O)c(C(=O)O)cn(C3CC3)c12` measured with Escherichia coli.
Result: 0.03

1: Cc1c(N2CCc3ccccc3C2)c(F)cc2c(=O)c(C(=O)O)cn(C3CC3)c12
2: CNc1cc2c(=O)c(C(=O)O)cn(C3CC3)c2c(C)c1N1CCC(C)CC1
3: Cc1c(N2CCCC2)c(N)cc2c(=O)c(C(=O)O)cn(C3CC3)c12
4: Cc1c(N2CCN(C)CC2)c(N)cc2c(=O)c(C(=O)O)cn(-c3ccc(O)cc3)c12
Q: Sort (4 compounds) by MIC: min first. Hello, could you send the labels back in the order asked? Thank you.
Result: 1, 4, 2, 3
(1: 0.03 µg/mL, 4: 0.125 µg/mL, 2: 0.5 µg/mL, 3: 1 µg/mL)

###

# Test system: Providencia stuartii
# Experimental details: Antibacterial activity tested against Providencia stuartii CNUR 5
# Assay type: functional
Quantity: MIC (mg/L)

The following compounds have reported results that may help.
Q: Give a short answer stating reported MIC for `Cc1c(N2CCOCC2)c(N)cc2c(=O)c(C(=O)O)cn(C3CC3)c12` .
Result: 0.5

Q: Give a short answer stating reported MIC for Cc1c(N2CC(C)CC(C)C2)c(N)cc2c(=O)c(C(=O)O)cn(C3CC3)c12 (stereo not given) .
Result: 0.5

P: Cc1c(N2CCN(C)CC2)c(N)cc2c(=O)c(C(=O)O)cn(-c3ccc(O)cc3)c12
Q: Cc1c(N2CCNC(C)C2)c(N)cc2c(=O)c(C(=O)O)cn(C3CC3)c12 (stereo not given)
Q: Quick one: lower MIC, P or Q ? # reply format: chosen label
Result: Q
(Q: 2 mg/L, P: 8 mg/L)

###

# Test system: Providencia stuartii
# Experimental details: Antibacterial activity tested against Providencia stuartii CNUR 5
# Type: functional
Quantity: MIC (mg/L)

The following compounds have reported results that may help.
Q: Please indicate recorded MIC of `Cc1c(N2CC3CCC2CC3)c(N)cc2c(=O)c(C(=O)O)cn(C3CC3)c12` measured with Providencia stuartii.
Result: 1

Q: Please indicate recorded MIC of `COc1ccc(-n2cc(C(=O)O)c(=O)c3cc(N)c(N4CCN(C)CC4)c(C)c32)cc1` measured with Providencia stuartii.
Result: 128

Q: Please indicate recorded MIC of `Cc1c(N2CCC2)c(N)cc2c(=O)c(C(=O)O)cn(C3CC3)c12` measured with Providencia stuartii.
Result: 64

Q: Please indicate recorded MIC of `Cc1c(N2CCSCC2)c(N)cc2c(=O)c(C(=O)O)cn(C3CC3)c12` measured with Providencia stuartii.
Result: 2

Q: Please indicate recorded MIC of Cc1c(N2CCC3CCCCC3C2)c(N)cc2c(=O)c(C(=O)O)cn(C3CC3)c12 (centres undefined) measured with Providencia stuartii.
Result: 1

1: Cc1c(N2CCN(C)CC2)c(F)cc2c(=O)c(C(=O)O)cn(C3CC3)c12
2: Cc1c(N2CCc3ccccc3C2)c([N+](=O)[O-])cc2c(=O)c(C(=O)O)cn(C3CC3)c12
3: CN1CCN(c2cc3c(cc2N)c(=O)c(C(=O)O)cn3-c2ccc(F)cc2)CC1
Q: Sort (3 compounds) by MIC: min first. Hello, could you send the labels back in the order asked? Thank you.
Result: 1, 3, 2

I: CN1CCN(c2cc3c(cc2N)c(=O)c(C(=O)O)cn3C2CC2)CC1
II: Cc1c(N2CCN(C)CC2)c([N+](=O)[O-])cc2c(=O)c(C(=O)O)cn(C3CC3)c12
Q: Quick one: lower MIC, I or II ? # reply format: chosen label
Result: I
(I: 8 mg/L, II: 32 mg/L)

A: Cc1c(N2CCCC(C)(C)C2)c(N)cc2c(=O)c(C(=O)O)cn(C3CC3)c12
B: Cc1c(N2CC(C)NC(C)C2)c(N)cc2c(=O)c(C(=O)O)cn(C3CC3)c12 (centres undefined)
C: Cc1c(N2CCCC(C)C2)c(N)cc2c(=O)c(C(=O)O)cn(C3CC3)c12 (centres undefined)
D: Cc1c(N2CCCCC2)c([N+](=O)[O-])cc2c(=O)c(C(=O)O)cn(C3CC3)c12
E: Cc1c(N2CCCC(CO)C2)c(N)cc2c(=O)c(C(=O)O)cn(C3CC3)c12 (centres undefined)
Q: Sort (5 compounds) by MIC: min first. Hello, could you send the labels back in the order asked? Thank you.
Result: C, B, E, A, D

a: Cc1c(N2CCCCC2)c(F)cc2c(=O)c(C(=O)O)cn(C3CC3)c12
b: CC1CN(c2cc3c(cc2N)c(=O)c(C(=O)O)cn3C2CC2)CCN1 (centres undefined)
Q: Given a and b , report the one with the higher recorded MIC. # reply format: chosen label
Result: b
(b: 16 mg/L, a: 2 mg/L)

a: CN1CCN(c2nc3c(cc2N)c(=O)c(C(=O)O)cn3C2CC2)CC1
b: Cc1c(N2CCC(C)CC2)c([N+](=O)[O-])cc2c(=O)c(C(=O)O)cn(C3CC3)c12
c: Nc1cc2c(=O)c(C(=O)O)cn(C3CC3)c2cc1N1CCNCC1
Q: Rank by MIC (largest to smallest). Hello, could you send the labels back in the order asked? Thank you.
Result: b, c, a

The reported measurements were obtained from ChEMBL document CHEMBL1129660.
